Would you kindly list activity at 10 µM for each of these molecules?
Tested on: HT‐29 cells
method_summary: Intracellular ROS
Assay type: cell-based
condition_context: Homo sapiens, HT-29, read-out: Intracellular ROS, percentage compared to the untreated control cells (ROS/SRB), HT‐29, 10 μM
Expressed in %, but write only the number.

What does the record list as activity at 10 µM for CC(=O)N[C@@H](CS)C(=O)O [N‐acetyl‐L‐cysteine, reference compound] ?
87.7

What does the record list as activity at 10 µM for COCCCN1C(/C=C/c2cccnc2)=CC(=O)CC1c1cccnc1 (stereo not shown) [6 d] ?
88.4

What does the record list as activity at 10 µM for O=C(/C=C(O)/C=C/c1ccc[nH]1)/C=C/c1ccc[nH]1 [compound 4] ?
121

What does the record list as activity at 10 µM for O=C(/C=C(O)/C=C/c1cccnc1)/C=C/c1cccnc1 [compound 2] ?
127

###

Test system: HT‐29 cells
method_summary: Intracellular ROS
Type: cell-based
condition_context: Homo sapiens, HT-29, read-out: Intracellular ROS, percentage compared to the untreated control cells (ROS/SRB), HT‐29, 1 μM
Would you kindly list activity at 1 µM for each of these compounds?
Expressed in %, but write only the number.

What does the record list as activity at 1 µM for "O=C(/C=C(/C=C/c1cccnc1)NC1CCCCC1)/C=C/c1cccnc1" ?
93.7

What does the record list as activity at 1 µM for "O=C(/C=C(O)/C=C/c1c[nH]c2ccccc12)/C=C/c1c[nH]c2ccccc12" ?
141

What does the record list as activity at 1 µM for "COCCCNC(=C\C(=O)/C=C/c1cccnc1)/C=C/c1cccnc1" ?
102

What does the record list as activity at 1 µM for "O=C(/C=C(/C=C/c1cccnc1)NCCCO)/C=C/c1cccnc1" ?
95.4
